# Test system: gravid White New Zealand female rabbits
# Assay Details: Teratogenicity in gravid White New Zealand rabbits
# Type: in vivo, rabbit
# Measurement Parameters: 10 mg/kg daily, day 5 to day 18 of gestation; normal limit 1.5%
# Protocol: The protocol used comprised administering to gravid White New Zealand female rabbits (weighing each about 2900-3000 grams before gestation) a daily dose of 0 (batch of control animals), 5,10 or 50 mg/kg of each product to be tested by gastrogavage from day 5 to day 18 of gestation, then carrying out a cesarean operation on day 29 of gestation in order to enumerate: (i) the total number of foestuses, and (ii) the total number of foestuses presenting at least one malformation. […]
The label depends only on Affected foetuses, %: yes (1) if it is at least 5%, no (0) if it is smaller.

Please review the following examples before continuing.
Nc1ccc(C(=O)CCCN2CCCCC2)cc1 [A 5, reference compound] : no (0)
Nc1ccc(C(=O)CN2CCCCC2)cc1 [A 18, reference compound] : yes (1)
Nc1ccc(C(=O)CN2CCCC2)cc1 [A 20, reference compound] : yes (1)

Exercise: Is Affected foetuses, % at least 5%? Consider CC(C(=O)c1ccc(N)cc1)N1CCSCC1 (stereo not drawn)
Solution: no (0)
